System: HeLa
test summary: Antiproliferative activity against human HeLa cells assessed as inhibition of cell proliferation incubated for 48 hrs by MTT assay
Type: functional, cell-based
Criterion: IC50 strictly less than 20 µM. Met: 1. Not met: -1.

smiles_repr=C=C(C)[C@@H]1CC[C@]2(C(=O)OCc3ccccc3)CC[C@]3(C)[C@H](CC[C@@H]4[C@@]5(C)CC[C@@H](OC(=O)CCl)C(C)(C)[C@@H]5CC[C@]43C)[C@@H]12 assigned_class=-1
smiles_repr=C=C(C)[C@@H]1CC[C@]2(C(=O)N3CCNCC3)CC[C@]3(C)[C@H](CC[C@@H]4[C@@]5(C)CCC(=O)C(C)(C)[C@@H]5CC[C@]43C)[C@@H]12 assigned_class=1
smiles_repr=C=C(C)[C@@H]1CC[C@]2(C(=O)OCc3ccccc3)CC[C@]3(C)[C@H](CC[C@@H]4[C@@]5(C)CC[C@H](OC(=O)CCl)C(C)(C)[C@@H]5CC[C@]43C)[C@@H]12 assigned_class=-1
smiles_repr=C=C(C)[C@@H]1CC[C@]2(C(=O)O)CC[C@]3(C)[C@H](CC[C@@H]4[C@@]5(C)CC[C@H](OC(=O)C(Cl)Cl)C(C)(C)[C@@H]5CC[C@]43C)[C@@H]12 assigned_class=-1
smiles_repr=C=C(C)[C@@H]1CC[C@]2(C(=O)N3CCN(C(C)=O)CC3)CC[C@]3(C)[C@H](CC[C@@H]4[C@@]5(C)CCC(=O)C(C)(C)[C@@H]5CC[C@]43C)[C@@H]12 assigned_class=-1
smiles_repr=C=C(C)[C@@H]1CC[C@]2(C(=O)N3CCN(C)CC3)CC[C@]3(C)[C@H](CC[C@@H]4[C@@]5(C)CC[C@H](OC(=O)N6CCN(C(=O)CCl)CC6)C(C)(C)[C@@H]5CC[C@]43C)[C@@H]12 assigned_class=-1
smiles_repr=C=CCNC(=O)[C@]12CC[C@@H](C(=C)C)[C@@H]1[C@H]1CC[C@@H]3[C@@]4(C)CC[C@H](OC(=O)N5CCN(C(=O)CCl)CC5)C(C)(C)[C@@H]4CC[C@@]3(C)[C@]1(C)CC2 assigned_class=1
smiles_repr=C=C(C)[C@@H]1CC[C@]2(C(=O)N3CCN(C(=O)CCl)CC3)CC[C@]3(C)[C@H](CC[C@@H]4[C@@]5(C)CC[C@H](OC(=O)Nc6ccccc6)C(C)(C)[C@@H]5CC[C@]43C)[C@@H]12 assigned_class=-1
smiles_repr=C=C(C)[C@@H]1CC[C@]2(C(=O)OC)CC[C@]3(C)[C@H](CC[C@@H]4[C@@]5(C)CC[C@H](OC(=O)CCl)C(C)(C)[C@@H]5CC[C@]43C)[C@@H]12 assigned_class=-1
smiles_repr=C=C(C)[C@@H]1CC[C@]2(C(=O)O)CC[C@]3(C)[C@H](CC[C@@H]4[C@@]5(C)CC[C@H](OC(=O)NCCNC(=O)CCl)C(C)(C)[C@@H]5CC[C@]43C)[C@@H]12 assigned_class=1
